- target of assay: HIV-1 reverse transcriptase (HXB2, group M subtype B) (Human immunodeficiency virus 1, UniProt P04585 SEQ:1-560)
- method notes: inhibition; DDDP, K+ buffer
- cond: tags: expressed in E. coli; hairpin + G4, termini between 2nd and 3rd G triplets
- Protocol: Reactions were assembled in reaction buffer (50 mM Tris-HCl pH 8.3, 75 mM KCl, 5 mM MgCl2, 10 mM DTT) with 30 nM primer, 45 nM template and 0.2 mM dNTPs. After annealing primer and template strands, DNA aptamers were added. Reactions were initiated by adding RT to a final concentration of 3 nM active site. […] Additional reactions included 1 μM and 3 μM where indicated. […]
measure: IC50 (nM)
Answers are plain numbers, in nM.

Ask: Assign IC50 to the following record: GGGTGGGTTCGCCTGATTAGCGATACTCAGGCGTTGGGTGGG (ssDNA) [Acut]
Result: 22
